All figures here come from paper PMC6212790.

Target: T1, Rok-C114-185 T157A (Bacillus subtilis subsp. subtilis str. …, UniProt O34857 114-185, T157A)
T1 sequence: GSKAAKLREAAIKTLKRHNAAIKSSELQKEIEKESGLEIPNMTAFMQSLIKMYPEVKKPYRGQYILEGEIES
Assay: ITC; ITC: sodium phosphate buffer, 200 mM NaCl, pH 6, 277 K, 50 uM protein in cell titrated with 750 uM Seq1 DNA; PBM: buffer not stated
Settings: protein: recombinant; tags: C-terminal His6; blunt, self-complementary 18 bp
recorded endpoint: Kd (µM)
Respond numerically; units are µM and should not be typed.

Endpoint output: Kd of Seq1 (dsDNA) DNA 1: CTAATAACTAGTTATTAG DNA 2: CTAATAACTAGTTATTAG . Value? 15
